Data provenance is the RNAGym collection of RNA variant scans (doi:10.1101/gr.219683.116).

B1: mRNA-splicing (parent)
chain: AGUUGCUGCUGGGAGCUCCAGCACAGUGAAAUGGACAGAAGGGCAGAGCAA

- Variants of: B1
- run.description: exon inclusion enrichment index; higher = more inclusion; WT1 exon 5 minigene, HEK293
Decide by exon inclusion enrichment index: equal to or exceeding 0.7 means 1.0, less means 0.0.

Worked examples follow.
query.sequence	class.assignment
AGUUAGGGAUGGGAGCUCCAGCACAGUGAAAUGGACAGGCGGGCAGAGCAA [G5A C6G U7G C9A A39G A40C]	0.0
AGUUUCUCCUGGGAGCUCCAGCACAGUGAAAUGGACAGAAGGGCAGAGCAA [G5U G8C]	1.0
AGUUAGGGAUGGGAGCUCCAGCACAGUGAAAUGGAGCGAAGGGCAGAGCAA [G5A C6G U7G C9A C36G A37C]	0.0
AGUUUCUUUUGGGAGCUCUCGCACAGUGAAAUGGACAGAAGGGCAGAGCAA [G5U G8U C9U C19U A20C]	0.0
AGUUCUUCUCGGGAGCUCCACCACAGUGAAAUGGACAGAAGGGCAGAGCAA [G5C C6U G8C C9U U10C G21C]	1.0
AGUUUCUUUUGGGAGCUCCAGCACAGCCAAAUGGACAGAAGGGCAGAGCAA [G5U G8U C9U U27C G28C]	0.0
AGUUGACGACGGGAGCUCCAGCAACGUGAAAUGGACAGAAGGGCAGAGCAA [C6A U7C C9A U10C C24A A25C]	1.0
AGUUACCACCGGGAGCUCCAGCACAGUGUAAUGGACAGAAGGGCAGAGCAA [G5A U7C G8A U10C A29U]	1.0

Exam item: Evaluate AGUUGCUGCUGGGAGCUCCAGCACAGUGAAAUGGACAGGCGGGCAGAGCAA [A39G A40C] : exon inclusion enrichment index at minimum 0.7?
Marked response: 0.0

Exam item: Evaluate AGUUCACACAGGGAGCUCCAGCACAGUGAAAUGGACAGAAGACCAGAGCAA [G5C C6A U7C G8A U10A G42A G43C] : exon inclusion enrichment index at minimum 0.7?
Marked response: 1.0
